The reported numbers originate from patent US8952149B2.

assay: Plasma concentrations in infected mice after an oral dose (LC/MS/MS); type: in vivo; details: CF-1, mouse, plasma; infected mice (n = 3), oral 100 mg/kg, 8 hours

>  <COMPOUND>
Cc1coc(-c2cc(F)c3c(c2)CC2(C(=O)NC(=O)NC2=O)[C@H]2[C@H](C)O[C@H](C)CN32)n1 (single isomer, unassigned)

>  <concentration at 8 h (ng/mL)>
7450

$$$$
>  <COMPOUND>
Cc1ncc(-c2cc3c(cc2F)N2C[C@@H](C)O[C@@H](C)[C@@H]2C2(C3)C(=O)NC(=O)NC2=O)cn1 [Comparator Compound from the Literature, reference compound]

>  <concentration at 8 h (ng/mL)>
3700

$$$$
>  <COMPOUND>
CCc1coc(-c2cc3c(c(F)c2F)N2C[C@H](C)O[C@H](C)[C@H]2C2(C3)C(=O)NC(=O)NC2=O)n1 (racemic)

>  <concentration at 8 h (ng/mL)>
18100

$$$$
